Reference source: patent US5223526A

target: succinate dehydrogenase (Botrytis cinerea, UniProt A0A384J5E4+A0A384J8V8+A0A384JHJ5); construct: succinate-DCPIP reductase assay with KCN; test: Enzyme inhibition: succinate dehydrogenase activity in Botrytis cinerea mitochondria (DCPIP reduction); format: biochemical; conditions: concentration required to inhibit the rate of DCPIP reduction by 50%; Botrytis cinerea isolate Nick mitochondria; read-out: I50 (μM conc.)
Sequence (A0A384J5E4 1-300): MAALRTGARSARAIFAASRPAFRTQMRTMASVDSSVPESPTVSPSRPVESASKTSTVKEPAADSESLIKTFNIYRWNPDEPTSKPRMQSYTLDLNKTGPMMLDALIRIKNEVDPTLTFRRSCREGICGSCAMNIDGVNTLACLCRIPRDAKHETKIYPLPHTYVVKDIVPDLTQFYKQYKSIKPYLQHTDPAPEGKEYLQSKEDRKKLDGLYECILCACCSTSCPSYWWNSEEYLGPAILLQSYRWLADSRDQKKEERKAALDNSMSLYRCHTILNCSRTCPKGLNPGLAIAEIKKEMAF
Sequence (A0A384J8V8 1-189): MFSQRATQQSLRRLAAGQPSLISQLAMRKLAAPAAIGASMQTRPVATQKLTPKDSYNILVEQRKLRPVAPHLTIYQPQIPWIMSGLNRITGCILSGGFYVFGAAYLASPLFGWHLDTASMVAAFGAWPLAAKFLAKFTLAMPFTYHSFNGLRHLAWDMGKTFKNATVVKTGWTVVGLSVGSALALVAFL
Sequence (A0A384JHJ5 1-192): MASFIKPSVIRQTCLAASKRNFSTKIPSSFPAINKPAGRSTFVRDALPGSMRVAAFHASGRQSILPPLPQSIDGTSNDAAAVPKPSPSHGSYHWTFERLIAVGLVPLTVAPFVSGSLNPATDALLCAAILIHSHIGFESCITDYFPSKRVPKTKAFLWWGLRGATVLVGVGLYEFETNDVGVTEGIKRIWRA
Sequence (A0A384K456 1-647 partner): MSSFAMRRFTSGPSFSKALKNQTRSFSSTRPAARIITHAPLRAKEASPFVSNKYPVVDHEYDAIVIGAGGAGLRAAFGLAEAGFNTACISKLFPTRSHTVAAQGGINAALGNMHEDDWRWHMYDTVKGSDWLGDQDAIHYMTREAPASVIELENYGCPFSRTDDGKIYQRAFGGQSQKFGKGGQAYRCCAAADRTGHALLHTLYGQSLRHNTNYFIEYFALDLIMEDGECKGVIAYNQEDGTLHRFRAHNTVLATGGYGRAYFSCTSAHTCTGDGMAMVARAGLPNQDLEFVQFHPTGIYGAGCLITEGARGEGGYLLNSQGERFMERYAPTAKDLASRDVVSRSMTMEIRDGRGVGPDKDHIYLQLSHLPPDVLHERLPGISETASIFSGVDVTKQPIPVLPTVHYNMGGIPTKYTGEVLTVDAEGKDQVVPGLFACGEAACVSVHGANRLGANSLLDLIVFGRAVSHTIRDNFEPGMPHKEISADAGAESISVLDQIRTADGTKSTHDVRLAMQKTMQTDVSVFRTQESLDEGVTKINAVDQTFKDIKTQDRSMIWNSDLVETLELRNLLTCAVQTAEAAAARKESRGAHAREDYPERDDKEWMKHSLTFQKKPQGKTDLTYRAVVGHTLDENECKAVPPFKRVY
// returns 0 unless IC50 is strictly below 0.06 µM, in which case 1

Examples from the recorded data:
>>> print(df.to_string())
                                   molecule  label_class
0  Cc1ccc(OC2CCCCC2)c(NC(=O)c2cn(C)nc2C(F)F)c1            0
1  Cn1cc(C(=O)Nc2cc(Cl)ccc2C2CCCCC2)c(C(F)F)n1            1
2  Cn1nc(C(F)(F)F)c(C(=O)Nc2ccccc2C2CCCCCC2)c1Cl            1
3  Cn1cc(C(=O)Nc2ccccc2C=C2CCCC2)c(C(F)(F)F)n1            0
4      Cn1cc(C(=O)Nc2ccccc2C2CCCCC2)c(Cl)n1            0

Task: # strict comparison: is reported IC50 < 0.06 µM? input = Cn1cc(C(=O)Nc2ccccc2C2CCCCC2)c(C(F)F)n1
Result: 1

Task: # strict comparison: is reported IC50 < 0.06 µM? input = Cn1cc(C(=O)Nc2ccccc2C=C2CCCCCC2)c(C(F)(F)F)n1
Result: 1

Task: # strict comparison: is reported IC50 < 0.06 µM? input = Cn1cc(C(=O)Nc2ccccc2C2=CCCCC2C(C)(C)C)c(C(F)(F)F)n1 (centres unmarked)
Result: 1

----------
System: Botrytis cinerea
Assay: Vine grey mold (grape berries)
Format: in vivo
Conditions: grape berries treated with 50 ppm, average of six berries, 7-10 days, read-out: % DISEASE CONTROL 50 ppm
Experimental: Grape berries, which have been washed and surfaced sterilized in 70% ethanol for one minute, are, except for the negative controls, treated with 0.2 mL of a 2:3 acetone/water formulation (containing 0.05% Tween® 20) of 200 or 50 ppm of the test compounds and placed one per well in 12-well plates. Six berries per treatment level are used. […] Treatment means are calculated and percent disease control is determined by the formula [(control mean - treatment mean)/control means]×100. […]
Field: pest or weed control at 50 ppm. Provide a value for each of the compounds that follow.
Numbers only, in %.

Example compounds with recorded pest or weed control at 50 ppm:
>>> df
                                   compound                    readout_name  meas_value
0  C[C@H]1CCC[C@H](c2ccccc2NC(=O)c2cn(C)nc2C(F)(F)F)C1 (relative stereo)  pest or weed control at 50 ppm          97
1  Cc1cc(C)c(C2CCCC2)c(NC(=O)c2cn(C)nc2C(F)(F)F)c1  pest or weed control at 50 ppm           0
2  Cn1cc(C(=O)Nc2ccccc2C2=CCCCCCC2)c(C(F)(F)F)n1  pest or weed control at 50 ppm          60
3  Cn1cc(C(=O)Nc2ccccc2C2=CCC(C(C)(C)C)CC2)c(C(F)F)n1 (centres unmarked)  pest or weed control at 50 ppm          50
4  Cn1cc(C(=O)Nc2ccccc2C2=CCCCC2)c(C(F)(F)F)n1  pest or weed control at 50 ppm          97

// each listed compound needs a value for pest or weed control at 50 ppm
1. C[C@@H]1CCC[C@H](c2ccccc2NC(=O)c2cn(C)nc2C(F)(F)F)C1 (relative stereo)
2. Cn1cc(C(=O)Nc2ccccc2[C@@H]2C[C@H]3CC[C@@H]2C3)c(I)n1 (relative stereo)
3. Cn1cc(C(=O)Nc2ccccc2C2CCCCC2)c([N+](=O)[O-])n1

Result:
1. 69
2. 51
3. 0
